Sourced from patent US9096543B2

# Protocol description: Pharmacokinetics (plasma AUC) in mice
# Type: in vivo
# Setup conditions: mouse, 5 mg/kg po
Metric name: AUC(0-inf) (ng·h/mL)

1) CN1CCC(C(=O)NNC(=O)/C=C\n2cnc(-c3cc(C(F)(F)F)cc(C(F)(F)F)c3)n2)CC1 [Compound 9] ... 671

###

# AUC(0-inf) listing for each entry below
# Protocol description: Pharmacokinetics (plasma AUC) in rats
# Format: in vivo
# Setup conditions: rat, 10 mg/kg po
Metric name: AUC(0-inf) (ng·h/mL)

1. O=C(/C=C\n1cnc(-c2cc(C(F)(F)F)cc(C(F)(F)F)c2)n1)N1CC(F)(F)C1 [Compound X-3, reference compound] ... 12300
2. CC(C)OC(=O)/C=C\n1cnc(-c2cc(OC(C)C)cc(C(F)(F)F)c2)n1 ... 68.3
